# subject of test: UniProt:P61073
# Sequence (P61073 whole entry): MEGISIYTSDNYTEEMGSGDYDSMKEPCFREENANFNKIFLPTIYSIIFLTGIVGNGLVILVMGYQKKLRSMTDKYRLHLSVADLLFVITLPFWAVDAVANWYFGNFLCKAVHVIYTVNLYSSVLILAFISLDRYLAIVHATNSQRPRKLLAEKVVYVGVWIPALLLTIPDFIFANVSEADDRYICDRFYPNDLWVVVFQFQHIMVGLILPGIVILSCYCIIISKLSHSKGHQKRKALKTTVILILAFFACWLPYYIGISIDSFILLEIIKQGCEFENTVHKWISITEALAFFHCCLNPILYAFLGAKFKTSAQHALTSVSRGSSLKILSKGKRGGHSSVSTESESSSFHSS
# method: Competition assays: test compounds binding to CXCR4 compared to SDF-1 (Table 2)
# settings: competition with SDF-1 for binding to CXCR4; read-out: IC50 (nM) vs SDF-1
Property: IC50; scope: individual molecules
result type: IC50

- molecule: "c1ccc(-c2nc(-c3ccc(-c4nc(-c5ccccc5)c(-c5ccccc5)[nH]4)cc3)[nH]c2-c2ccccc2)cc1"
  subject of test: "UniProt:P61073"
  value reported: "> 1000 nM"
- molecule: "c1ccc(CNCc2ccc(CNCc3ccccn3)cc2)nc1 [MSX-161s]"
  subject of test: "UniProt:P61073"
  value reported: "> 1000 nM"
- molecule: "c1cc(CNCc2ccc(CNCc3ccncc3)cc2)ccn1 [MSX-159s]"
  subject of test: "UniProt:P61073"
  value reported: "> 1000 nM"
- molecule: "Oc1ccc(NCc2ccc(CNc3ccc(O)cc3)cc2)cc1"
  subject of test: "UniProt:P61073"
  value reported: "> 1000 nM"
- molecule: "OCc1ccc(CNc2ccc(F)cn2)cc1"
  subject of test: "UniProt:P61073"
  value reported: "> 1000 nM"
- molecule: "Clc1cccc(NCc2ccc(CNc3ncccn3)cc2)n1"
  subject of test: "UniProt:P61073"
  value reported: "1 nM"

Source listed as patent US20160002174A1.
